Experiment: blockers of DNA damage checkpoint Chk1 activation – imaging, HeLa, hydroxyurea, phospho-Chk1 antibody, percent positive cells, primary screen (AID 1186)
Details: hydroxyurea-induced phospho-Chk1 immunofluorescence imaging, higher = more signal
In this section, each of the molecules is paired with its reported z-score.
// keep it numeric: no unit symbol after the value

Molecule	Test value
O=C1C2C=CC(C(O)c3ccc4c(c3)OCO4)N(Nc3ccc([N+](=O)[O-])cc3)C2C(=O)N1c1ccccc1 (centres undefined)	0.0611
COCCCNC(=O)[C@@]1(Sc2ccc(C)cc2)CC(=O)N(Cc2ccccc2Cl)[C@@H]1c1ccc(CO)cc1	-0.63
CC(=CC1CCCCC1)[C@@H](NC(=O)c1cccnc1)c1ccc(-c2ccccc2)cc1	1.6
COCCOC(=O)N1C(=O)[C@@]2(c3ccccc31)[C@H](C(N)=O)[C@H]1C(=O)O[C@H](c3ccccc3)[C@H](c3ccccc3)N1[C@@H]2c1ccc(O)cc1	-0.0504

**Q:** Using the record for CCCCN1CC=CC23O[C@@H]4/C=C\CCCOC(=O)C4[C@H]2C(=O)N(CCCO)[C@@H]3C1=O (some centres undefined) , state its measured z-score.
**A:** 0.267

**Q:** Entry Cc1c(NC(=O)/C(C#N)=C/c2cccc([N+](=O)[O-])c2)c(=O)n(-c2ccccc2)n1C needs its z-score filled in; supply it.
**A:** -0.782

**Q:** Give z-score for the following molecule: OCC1C=C(/C=C/c2ccccc2)CN1Cc1ccccc1Br (centres undefined)
**A:** -0.449

**Q:** // Input: C[N+](C)(C)CCCC[C@@H]1NC(=O)[C@@H]2C[C@H](C(=O)NCCCCCCNC(=O)CS)[C@H](c3ccc(O)cc3)N2C1=O . Output its z-score only.
**A:** 0.146

**Q:** Identify the reported z-score for the following entry. COc1cc2c(cc1OC)CN(C(=O)[C@H]1[C@@H]3C(=O)O[C@@H](c4ccccc4)[C@@H](c4ccccc4)N3[C@@H](c3ccccc3OCCO)[C@]13C(=O)Nc1ccc(C#CCCO)cc13)CC2
**A:** 0.211

**Q:** Tell me its z-score given COC(=O)[C@@]1(Cc2ccccc2)[C@H]2c3cc(C(=O)N(C)C)n(Cc4ccc(OC)c(OC)c4)c3C[C@H]2CN1C(=O)c1ccccc1 as the entry.
**A:** 0.639

**Q:** Dear colleague, please send me the reported z-score for CO[C@H]1O[C@H](CO)[C@@H](OC(=O)Nc2cccc(F)c2)[C@H](OC(=O)Nc2ccccc2)[C@H]1OC(=O)Nc1ccccc1 when you can.
**A:** -0.357

**Q:** Give z-score for the following molecule: [N-]=[N+]=Nc1ccccc1[C@H]1OC(c2ccc(OCCCO)cc2)=N[C@@]1(CCS(=O)(=O)c1ccccc1)C(=O)NCc1ccccc1
**A:** 0.517

**Q:** Identify measured z-score associated with C=CCNC(=O)[C@@H]1[C@H]2C(=O)O[C@H](c3ccccc3)[C@H](c3ccccc3)N2[C@H](c2ccc(OCCO)cc2)[C@@]12C(=O)N(C(=O)OCCOC)c1ccc(C#CCC(C(=O)OC)C(=O)OC)cc12
**A:** 0.053

**Q:** Please supply the value of reported z-score for the item CC[C@@H]1C=C(C(=O)O)[C@H](c2cccc3ccccc23)N1S(=O)(=O)c1ccc(C)cc1
**A:** -1.25
